- System: K4 kissing-loop RNA reporter;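 also: bound reporter read as fluorescence of individual clusters on recovered sequencing chips by microscopy, with normalized cluster intensities fitted with a binding model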
- assay comment: apparent KD of K4 kissing-loop reporter; higher = weaker reporter binding
- run conditions: Eterna round: R107; input ligand: none
Label met when apparent KD of K4 kissing-loop reporter is at or above 200 nM; anything below gets not met.

Take a look at these entries with their results.
residues	answer label
CAUGAGUGAUGUUCGUGCGCUUGGUCGAAGCGAGGACCGGUACGGCCGCCACUCGCUAUGGCGGCAUCUACCAGUGAUGUUGGUG [Same State Tryptophan A GF 2]	met
GGACGCCGGUCGGCCGCCACUCACAGCAGCCAGUGAUGUUGGAUUGUAGCGGAGUGAUGUUCCGAGAGGACCGGGACUGCAGUCU [Same State Tryptophan B GF 11]	not met
UUUGGAAGCGGUGUUGAUUAGGGAGCGGAAGGAGCGCCGAGGAGGGCAGGUAGGUCGCCGGAAUGUAGUGAUGUUGCAUAGAGGU [ExArgA.Aa]	met
UCGAAGGAUGGAAGGAGCGCUCGUCAGUCCUGCGAGUGAUGUUCGUGGGUAAAUAGUCGCGAGCAGGUAGGUCGCCAUCUUGAGC [Laxe]	not met
GCAUCCAUGUGAGGAUAUCGAGACGAGUGAUGUUCGGGCACCAGACAGGGAGACCUGUCAAUGGCUUGAGAAGGCACAUGGAUGC	met

# next sequence below
Query: Does apparent KD of K4 kissing-loop reporter meet or surpass 200 nM for `UAGAAGAGAAGCGAUACCAGCGAAUGAAGAAGAUGAUGAAGCCAGUGAUGUUGGAAAGAACGCCCUUGGCAGCGCAAGAGAAGAU` ?
Result: not met

###

- System: MS2 coat protein
- assay comment: apparent KD of MS2 coat protein; designed switch direction (-1 OFF switch, 1 ON switch): -1; higher = weaker reporter binding
- run conditions: input ligand: none
quantity kind: apparent KD of MS2 coat protein (µM)
Give bare numbers, in µM.

Recorded apparent KD of MS2 coat protein, per entry:
residues	apparent KD of MS2 coat protein [µM]
GCUGGAAAAGGAUAUACAUAACGUGCGUCGGCACGAGACCUACAUGAGGAUCACCCAUGUAGAAGGUUUCCAGC [EX2 #74] (Eterna round: R97, puzzle: Exclusion 2)	0.0136
AGCUAGUCAGGAUAUACAAACAUGUCAAAAGACGUGAAGGGACAUGAGGAUCACCCAUGUAGAAGGGACUAGCA [Web Mod 74% 2] (Eterna round: R96, puzzle: Exclusion 2)	0.0492
AAAUAGCAUGAGGAUAUUGGACUGUAUUCAGUACGAGAAGGCAUGACAUGAGGAUCACCCAUGUUUUGUUGGGA [EX6 #6] (Eterna round: R97, puzzle: Exclusion 6)	0.0675
AGCUGUGGCCGAGGAUAUACAUGAGGAUCACCCAUGUUACAUAAUUCGACAUGAGAAUACGAACCGUAGAAGGCGGUCUCAGCA [Eli eng2 - 002] (Eterna round: R96, puzzle: Exclusion NG 2)	0.0661
GGGAGGAGUGUAGGAUAUCCGACAAUCCUGUCAGGAGAAGGGCACCCUACUUGAGGAUCACCCAAGUCUCCGGGUGCUCAAGAA [Mutated MS2 EX1.15] (Eterna round: R96, puzzle: Exclusion NG 1)	0.0132
CACGAAGAGUGAGGAUAUGUGCGACAAAGUUGCACAGAAGGCACAUGAGGAUCACCCAUGUAAGCUAGGUCGAAAGACCUAGCG [Omei Exc(NG)1 Av3] (Eterna round: R96, puzzle: Exclusion NG 1)	0.0238
UAGCAUUGCCAAAGGUAGUGCUUUACAUGAGGAUCACCCAUGUAGGAUAUGGUAGGCAAAGCUUACCAGAAGGACAUGAUAAUU [Mat - Exclusion NG 3 - Mod of JL - D12] (Eterna round: R96, puzzle: Exclusion NG 3)	0.0561
UUUGGGCCUGUGAGGAUAUCGGGUUUGAAAGGGCCCGAGAAGGCACAUGAGGAUCACCCAUGUAAGGGCCCGGG [-32.7, -30.6 kcal, A 23%, 5a-5abis] (Eterna round: R97, puzzle: Brourd's mod of Exclusion 4)	0.0195

// each sequence listed below needs its apparent KD of MS2 coat protein
1. AUCGUAGCAGGAUAUCCGGAGAUUGACAUGAGGAUCACCCAUGUGGUCAUGCCAGCCAAUGGAGAAGGGUUUCGGU [Eternabot (L1) Solution 49] (Eterna round: R97, puzzle: Exclusion 5)
2. GAUCGACAUGAGGAUCACCCAUGUCAGGAUAUCUACAUUGAAGCUUCGGCUUCAAUGUAGAGAAGGGACAUAAU [E1/13-B1] (Eterna round: R97, puzzle: Exclusion 1)
3. ACUUACUGAGGAUAUACUUAGAUUUACAUGAGGAUCACCCAUGUUCCUCUAUGUAUAUAUGUAGAAGGCAGAAGUA [Mat - Exclusion 5 - JL Mod - D50] (Eterna round: R97, puzzle: Exclusion 5)
4. UACCUAUAGUAAGGAUAUCAUUGCGAUUAGCUAUGAGAAGGUACACAUGAGGAUCACCCAUGUCCUCCAAUUAACCGAAAGGUA [7th something] (Eterna round: R96, puzzle: Exclusion NG 1)
5. UGCCGUAGAGGAUAUACAUUGAAUAAGAUUCAUGUAGAACUACAUGAGGAUCACCCAUGUAGAAGGCUAUGGCU [JL-ex2-4.38 Eli mod] (Eterna round: R97, puzzle: Exclusion 2)
6. GUUCGUGAGAAGGAUAUGAUUCUGGAACAAGAGUUAGAAGGUUUCACAUGAGGAUCACCCAUGUCUAGAAAACC [Eternabot (Original) Solution 32] (Eterna round: R97, puzzle: Exclusion 6)
7. GGAUUUACUGAGGAUAUUACAUCACCCGAUUGAUAAGAAGGCAGAACAUGAGGAUCACCCAUGUGGGUAGUCAA [Polaris3] (Eterna round: R97, puzzle: Exclusion 6)

Result:
[0.637, 0.0397, 0.038, 0.178, 0.0169, 0.0107, 0.111]

// each sequence listed below needs its apparent KD of MS2 coat protein
1. UGCAGACGAGGAUAUAGAUUUAAGUACAUGAGGAUCACCCAUGUACAUAUGUAUUUAGAUUUAGAAGGCGUCUGCU [E5/16-A4] (Eterna round: R97, puzzle: Exclusion 5)
2. GCAGCAUAGUUUACUAACUGUUACAUGAGGAUCACCCAUGUUCAGGAUAUGGUCUGGAUUACAGGCCAGAAGGGAGCAAGCUGC [Eli exng3 - 027] (Eterna round: R96, puzzle: Exclusion NG 3)

Result:
1: 0.0298; 2: 0.0138

Query: Form: Entry = GCCUGUGCCCUAGGAUAUCGCCCAGCCAAUGGAUGAGAAGGAGGCGGGUGAAACAUGAGGAUCACCCAUGUAAACGCACAAGCA [Inusri] (Eterna round: R96, puzzle: Exclusion NG 1) | System = MS2 coat protein | apparent KD of MS2 coat protein = ____
Result: 0.0227
